- Target under test: c-Met kinase domain recombinant protein (Homo sapiens, UniProt P08581)
- Construct: 50 μL diluted solution of c-Met kinase domain recombinant protein in reaction buffer was added to initiate the reaction
- Sequence (P08581 1078-1345 limits assumed): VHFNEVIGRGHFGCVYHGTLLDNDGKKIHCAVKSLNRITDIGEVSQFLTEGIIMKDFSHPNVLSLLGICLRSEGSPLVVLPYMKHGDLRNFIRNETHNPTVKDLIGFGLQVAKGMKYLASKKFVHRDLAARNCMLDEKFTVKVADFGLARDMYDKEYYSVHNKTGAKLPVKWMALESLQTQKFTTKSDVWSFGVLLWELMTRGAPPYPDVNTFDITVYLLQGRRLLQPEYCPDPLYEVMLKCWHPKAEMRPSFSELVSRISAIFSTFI
- Assay info: biochemical
- Test conditions: read-out: Average inhibition rate at 0.1 μM (%)
Property label: inhibition at 0.1 µM (%)

                                   compound  value_unit  numeric_value
0  CC(C)N1CCC(n2cc(-c3cnc4cnn(S(=O)(=O)c5cnc6ccccn56)c4c3)cn2)CC1 [Example 59]           %           51.6
1  CN(C)c1ccc(-c2cnc3cnn(S(=O)(=O)c4cnc5ccccn45)c3c2)cc1 [Example 42]           %           45.5
2  CC(C)(C)OC(=O)N1CC=C(c2cnc3cnn(S(=O)(=O)c4cnc5ccccn45)c3c2)CC1 [Example 35]           %           51.1
3  Cn1cc(-c2cnc3cnn(S(=O)(=O)c4cccc5ccccc45)c3c2)cn1 [Example 111]           %           28.6
4  Cn1cc(-c2ccc3ncc(S(=O)(=O)n4ncc5ncc(-c6cnn(C7CCN(C(=O)OC(C)(C)C)CC7)c6)cc54)n3c2)cn1 [Example 141]           %           86.3
5  O=S(=O)(c1cnc2ccccn12)n1ncc2ncc(-c3ccc(C(F)(F)F)cc3)cc21 [Example 32]           %           52.9
6  Cn1cc(-c2cnc3cnn(S(=O)(=O)c4cnc5ccc(-c6ccc(N7CCOCC7)cc6)cn45)c3c2)cn1 [Example 75]           %           74.6
